# System: mEml4-Alk cell lines
# assayComment: Cell viability assay (CellTiter-Glo) in mEml4-Alk cell lines
# Format: cell-based
# particulars: Mus musculus, mEml4-Alk^1, 72 h
readoutLabel: IC50 (nM)
Answers are plain numbers, in nM.

*Q* Fill in reported IC50 for this entry: C[C@H]1Oc2cc(cnc2N)-c2c(nn(C)c2C#N)CN(C)C(=O)c2ccc(F)cc21 [lorlatinib]
*A* 1.17

Data provenance is patent US20250057930A1.
